biological target: hERG (KCNH2) (Homo sapiens, UniProt Q12809); assay: Inhibition of human ERG at 30 uM
Sequence (Q12809 whole entry): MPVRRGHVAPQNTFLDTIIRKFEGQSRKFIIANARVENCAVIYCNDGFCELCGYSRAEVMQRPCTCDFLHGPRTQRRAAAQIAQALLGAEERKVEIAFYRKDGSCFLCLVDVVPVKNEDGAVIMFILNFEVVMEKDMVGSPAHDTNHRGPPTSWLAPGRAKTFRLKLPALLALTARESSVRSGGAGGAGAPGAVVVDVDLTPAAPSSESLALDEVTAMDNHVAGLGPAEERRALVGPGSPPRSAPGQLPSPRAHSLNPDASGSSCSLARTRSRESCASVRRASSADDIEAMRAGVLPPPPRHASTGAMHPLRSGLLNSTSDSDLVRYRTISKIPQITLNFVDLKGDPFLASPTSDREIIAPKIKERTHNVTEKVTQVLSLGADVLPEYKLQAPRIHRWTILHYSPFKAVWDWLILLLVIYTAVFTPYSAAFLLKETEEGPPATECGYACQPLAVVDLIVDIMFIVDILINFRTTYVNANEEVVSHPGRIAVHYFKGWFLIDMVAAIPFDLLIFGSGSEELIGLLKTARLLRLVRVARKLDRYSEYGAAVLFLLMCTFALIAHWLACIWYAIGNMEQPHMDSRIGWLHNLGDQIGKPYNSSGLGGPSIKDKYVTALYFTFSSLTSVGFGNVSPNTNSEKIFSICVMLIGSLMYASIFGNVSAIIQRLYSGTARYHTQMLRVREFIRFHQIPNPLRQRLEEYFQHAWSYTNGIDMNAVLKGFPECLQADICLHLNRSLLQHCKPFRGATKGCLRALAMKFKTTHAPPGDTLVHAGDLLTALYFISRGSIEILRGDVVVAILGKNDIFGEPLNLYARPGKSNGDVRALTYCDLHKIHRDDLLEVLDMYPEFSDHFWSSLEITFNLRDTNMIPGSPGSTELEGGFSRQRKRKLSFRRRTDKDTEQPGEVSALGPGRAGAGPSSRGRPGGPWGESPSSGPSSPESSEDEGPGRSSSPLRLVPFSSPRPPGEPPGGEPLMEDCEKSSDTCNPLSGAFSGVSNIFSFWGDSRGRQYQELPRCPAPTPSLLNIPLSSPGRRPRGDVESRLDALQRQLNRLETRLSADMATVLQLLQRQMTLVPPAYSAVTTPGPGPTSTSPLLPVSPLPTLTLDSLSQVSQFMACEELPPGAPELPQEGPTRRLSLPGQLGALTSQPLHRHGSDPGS
assay-readout: inhibition at 30 µM (%)

structure-notation	test-target	measurement-unit	measured-value
C[C@@]12CN(C(=O)Nc3ccnn3-c3ccccc3)CCN1C(=O)N([C@H]1C[C@@H]1c1ccccc1)C2=O	hERG (KCNH2) (Homo sapiens, UniProt Q12809)	%	27

====

experiment: Half life in rat; type: ADME, organism-based; conditions: in vivo
assay-readout: half-life (h)

structure-notation	measured-value
O=C(Nc1ccccc1-c1ccccc1)N1CCN2C(=O)N([C@H]3C[C@@H]3c3ccccc3)C(=O)[C@@H]2C1	2.7
CS(=O)(=O)c1cc(Cl)c(NC(=O)N2CCN3C(=O)N([C@H]4C[C@@H]4c4ccccc4)C(=O)[C@@H]3C2)c(Cl)c1	3.2
C[C@@]12CN(C(=O)Nc3ccnn3-c3ccccc3)CCN1C(=O)N([C@H]1C[C@@H]1c1ccccc1)C2=O	5.1
O=C(Nc1ccnn1-c1ccccc1)N1CCN2C(=O)N([C@H]3C[C@@H]3c3ccccc3)C(=O)[C@@H]2C1	1.3
